Quick reference for half-life among some compounds
- testName: Human liver microsomes T1/2
- Type: in vitro ADME
- particulars: human, liver microsomes; Table 4

Worked cases, half-life given:
C=CC(=O)N1CCCC(NC(=O)c2sc3nccc4c3c2NC(=O)N4c2ccc(Oc3ccccc3)cc2)C1 (stereo not shown) [Compound B]: < 4 min
C=CC(=O)N1CCCC(NC(=O)c2sc3nccc4c3c2NC(=O)N4c2cnc(OC3CCC3)cc2C)C1 (stereo not shown) [H]: < 4 min
C=CC(=O)N1CCCC(NC(=O)c2sc3nccc4c3c2NC(=O)N4c2cnc(OC3CCCC3)cc2C)C1 (stereo not shown) [Compound G]: < 4 min

We now examine a further compound.
Request: Which value of half-life has been reported for C=CC(=O)N1CCCC(NC(=O)c2sc3nccc4c3c2NC(=O)N4c2ccc(Oc3ccccc3)cn2)C1 (stereo not shown) [C] in the records?
Result: < 4 min

----------
- testedTarget: BTK (Homo sapiens)
- Sequence (Q06187 whole entry): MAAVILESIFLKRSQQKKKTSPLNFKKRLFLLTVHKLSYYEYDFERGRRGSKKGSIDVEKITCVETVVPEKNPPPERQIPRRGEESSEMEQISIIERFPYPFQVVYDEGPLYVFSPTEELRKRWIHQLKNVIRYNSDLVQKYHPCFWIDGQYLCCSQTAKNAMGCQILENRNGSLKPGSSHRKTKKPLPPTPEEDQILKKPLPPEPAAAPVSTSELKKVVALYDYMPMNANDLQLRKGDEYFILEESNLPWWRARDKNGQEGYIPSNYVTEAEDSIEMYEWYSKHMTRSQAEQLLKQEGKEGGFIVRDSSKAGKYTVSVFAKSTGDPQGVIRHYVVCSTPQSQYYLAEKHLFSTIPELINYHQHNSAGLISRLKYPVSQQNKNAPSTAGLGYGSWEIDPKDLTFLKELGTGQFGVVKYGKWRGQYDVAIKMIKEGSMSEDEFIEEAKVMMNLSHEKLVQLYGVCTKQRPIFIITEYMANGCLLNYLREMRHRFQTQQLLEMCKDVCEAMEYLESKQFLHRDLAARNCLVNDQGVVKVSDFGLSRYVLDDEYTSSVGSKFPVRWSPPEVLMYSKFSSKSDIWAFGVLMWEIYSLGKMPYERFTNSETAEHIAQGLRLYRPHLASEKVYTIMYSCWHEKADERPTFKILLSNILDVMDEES
- testName: BTK covalent inhibition kinetics (KI, kinact, kinact/KI)
- Type: biochemical
- particulars: Table 4; average of 2 independent determinations (± SD)
pKi: −log10 of the molar value.
measurementName: pKi

C=CC(=O)N1CCCC(NC(=O)c2sc3nccc4c3c2NC(=O)N4c2cnc(OC3CCC3)cc2C)C1 (stereo not drawn) [H]: 7.19

1 = C=CC(=O)N1CCCC(NC(=O)c2sc3nccc4c3c2NC(=O)N4c2ncc(Oc3ccccc3)cc2C)C1 (stereo not drawn) [E]
2 = C=CC(=O)N1CCCC(NC(=O)c2sc3nccc4c3c2NC(=O)N4c2cnc(CC(C)C)cc2C)C1 (stereo not drawn) [J]
Request: Thinking about recorded pKi values, which is higher, 1 or 2 ? In your reply, give the label of the chosen option.
Result: 1
(1: 7.16, 2: 6.84)
